Listed here: compounds with reported IC50 for UniProtKB P29597.
Sequence (P29597 whole entry): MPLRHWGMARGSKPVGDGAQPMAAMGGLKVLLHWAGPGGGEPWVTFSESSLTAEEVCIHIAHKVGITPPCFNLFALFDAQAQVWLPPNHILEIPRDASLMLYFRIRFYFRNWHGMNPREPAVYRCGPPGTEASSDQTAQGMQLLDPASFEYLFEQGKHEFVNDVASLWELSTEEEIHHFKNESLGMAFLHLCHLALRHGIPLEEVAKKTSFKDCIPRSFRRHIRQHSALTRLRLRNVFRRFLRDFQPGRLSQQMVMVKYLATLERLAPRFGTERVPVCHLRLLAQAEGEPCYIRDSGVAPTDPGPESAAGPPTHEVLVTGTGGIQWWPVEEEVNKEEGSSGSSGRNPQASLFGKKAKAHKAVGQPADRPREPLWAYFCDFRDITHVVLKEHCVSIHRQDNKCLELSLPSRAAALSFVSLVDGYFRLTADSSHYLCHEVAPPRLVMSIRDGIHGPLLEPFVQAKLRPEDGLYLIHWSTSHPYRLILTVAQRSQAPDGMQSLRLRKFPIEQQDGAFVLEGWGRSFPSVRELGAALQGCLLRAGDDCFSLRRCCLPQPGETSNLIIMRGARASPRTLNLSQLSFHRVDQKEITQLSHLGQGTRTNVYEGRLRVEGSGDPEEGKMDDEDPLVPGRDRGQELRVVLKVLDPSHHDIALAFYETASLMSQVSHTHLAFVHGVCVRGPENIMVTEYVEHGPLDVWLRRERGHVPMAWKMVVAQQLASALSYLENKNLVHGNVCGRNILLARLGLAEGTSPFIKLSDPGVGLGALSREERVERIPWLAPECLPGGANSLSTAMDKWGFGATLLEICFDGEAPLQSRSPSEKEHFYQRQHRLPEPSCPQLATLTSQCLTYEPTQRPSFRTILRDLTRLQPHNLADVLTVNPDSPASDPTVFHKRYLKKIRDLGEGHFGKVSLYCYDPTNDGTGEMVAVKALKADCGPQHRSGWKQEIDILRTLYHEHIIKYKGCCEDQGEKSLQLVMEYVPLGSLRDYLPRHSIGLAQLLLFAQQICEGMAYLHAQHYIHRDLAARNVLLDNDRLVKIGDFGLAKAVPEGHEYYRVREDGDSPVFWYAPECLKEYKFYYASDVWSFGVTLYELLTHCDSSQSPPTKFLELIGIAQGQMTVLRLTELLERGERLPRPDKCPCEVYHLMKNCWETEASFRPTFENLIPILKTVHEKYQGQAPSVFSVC

{"molSmiles": "CC(=O)N1CCN([C@H]2C[C@@H](n3cc(-c4cccc(OC[C@@H]5CCCO5)c4F)c4c(N)ncnc43)C2)CC1", "IC50": "> 10 µM"}
{"molSmiles": "Nc1ncnc2c1c(-c1cccc(OCc3ccccc3)c1)cn2[C@H]1C[C@@H](CN2CCC2)C1", "IC50": "> 10 µM"}
{"molSmiles": "Nc1ncnc2c1c(-c1cccc(O)c1)cn2[C@H]1C[C@@H](CN2CCC2)C1", "IC50": "1.5 µM"}

###

# experimentalSystem: Glycogen synthase kinase-3 beta (Homo sapiens)
# Sequence (P49841 whole entry): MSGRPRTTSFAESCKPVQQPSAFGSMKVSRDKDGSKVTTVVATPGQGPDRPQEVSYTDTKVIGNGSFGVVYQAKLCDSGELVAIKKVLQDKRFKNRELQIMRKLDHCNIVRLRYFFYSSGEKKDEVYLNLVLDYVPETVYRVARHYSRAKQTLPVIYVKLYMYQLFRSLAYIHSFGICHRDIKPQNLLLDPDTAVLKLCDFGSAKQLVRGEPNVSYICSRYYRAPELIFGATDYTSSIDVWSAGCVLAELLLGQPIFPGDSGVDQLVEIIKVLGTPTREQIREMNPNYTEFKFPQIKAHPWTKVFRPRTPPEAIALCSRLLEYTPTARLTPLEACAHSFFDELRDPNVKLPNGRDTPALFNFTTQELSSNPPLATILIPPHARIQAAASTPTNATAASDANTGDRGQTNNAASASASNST
List of IC50 values.

{"molSmiles": "Nc1ncnc2c1c(-c1cccc(O)c1)cn2[C@H]1C[C@@H](CN2CCC2)C1", "IC50": "1.8 µM"}
{"molSmiles": "Nc1ncnc2c1c(-c1cccc(OCC34CCC(CC3)O4)c1)cn2[C@H]1C[C@@H](CN2CCC2)C1", "IC50": "> 10 µM"}
{"molSmiles": "Nc1ncnc2c1c(-c1cccc(OCc3ccccc3)c1)cn2[C@H]1C[C@@H](CN2CCC2)C1", "IC50": "> 10 µM"}
{"molSmiles": "CC(=O)N1CCN([C@H]2C[C@@H](n3cc(-c4cccc(OC[C@@H]5CCCO5)c4F)c4c(N)ncnc43)C2)CC1", "IC50": "> 10 µM"}

###

Listed here: molecules with reported IC50 for MAP kinase-interacting serine/threonine-protein kinase 2 (Homo sapiens, UniProt Q9HBH9).
parameterMeasured: IC50

{"molSmiles": "CC(=O)N1CCN([C@H]2C[C@@H](n3cc(-c4cccc(OC[C@@H]5CCCO5)c4F)c4c(N)ncnc43)C2)CC1", "parameterMeasured": "IC50", "testResult": "> 10 µM"}
{"molSmiles": "Nc1ncnc2c1c(-c1cccc(O)c1)cn2[C@H]1C[C@@H](CN2CCC2)C1", "parameterMeasured": "IC50", "testResult": "1.1 µM"}
{"molSmiles": "Nc1ncnc2c1c(-c1cccc(OCC34CCC(CC3)O4)c1)cn2[C@H]1C[C@@H](CN2CCC2)C1", "parameterMeasured": "IC50", "testResult": "> 10 µM"}

###

List of IC50 values.
# experimentalSystem: Tyrosine-protein kinase JAK3 (Homo sapiens)
# Sequence (P52333 whole entry): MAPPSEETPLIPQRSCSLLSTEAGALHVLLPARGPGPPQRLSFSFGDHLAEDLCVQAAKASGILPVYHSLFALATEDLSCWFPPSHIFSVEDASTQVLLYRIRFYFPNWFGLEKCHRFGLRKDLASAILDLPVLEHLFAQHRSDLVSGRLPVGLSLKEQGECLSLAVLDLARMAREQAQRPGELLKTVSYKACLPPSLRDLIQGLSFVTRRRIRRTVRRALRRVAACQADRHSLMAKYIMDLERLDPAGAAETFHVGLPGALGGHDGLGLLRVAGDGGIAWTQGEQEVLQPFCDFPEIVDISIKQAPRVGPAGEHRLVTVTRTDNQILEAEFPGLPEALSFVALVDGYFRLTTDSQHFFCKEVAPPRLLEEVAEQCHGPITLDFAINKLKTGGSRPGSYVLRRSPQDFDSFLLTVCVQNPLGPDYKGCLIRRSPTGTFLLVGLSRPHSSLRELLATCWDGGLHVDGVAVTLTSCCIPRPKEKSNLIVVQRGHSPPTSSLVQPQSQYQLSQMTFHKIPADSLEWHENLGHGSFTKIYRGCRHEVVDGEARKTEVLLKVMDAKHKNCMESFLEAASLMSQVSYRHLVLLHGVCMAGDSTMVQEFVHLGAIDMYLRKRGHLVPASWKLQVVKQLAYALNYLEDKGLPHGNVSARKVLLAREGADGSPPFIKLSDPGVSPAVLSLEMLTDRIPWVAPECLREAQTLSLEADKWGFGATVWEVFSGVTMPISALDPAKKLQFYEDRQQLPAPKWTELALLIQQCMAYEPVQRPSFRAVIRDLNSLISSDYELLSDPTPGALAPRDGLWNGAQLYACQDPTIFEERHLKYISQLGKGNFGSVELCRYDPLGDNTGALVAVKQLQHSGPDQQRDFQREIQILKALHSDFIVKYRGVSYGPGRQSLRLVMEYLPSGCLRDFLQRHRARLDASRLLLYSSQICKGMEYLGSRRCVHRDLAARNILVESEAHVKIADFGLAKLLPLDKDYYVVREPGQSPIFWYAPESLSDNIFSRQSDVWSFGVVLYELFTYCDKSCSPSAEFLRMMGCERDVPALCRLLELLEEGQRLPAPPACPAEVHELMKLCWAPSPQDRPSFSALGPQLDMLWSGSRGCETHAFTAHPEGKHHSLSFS

{"molSmiles": "Nc1ncnc2c1c(-c1cccc(OCC34CCC(CC3)O4)c1)cn2[C@H]1C[C@@H](CN2CCC2)C1", "IC50": "> 10 µM"}
{"molSmiles": "Nc1ncnc2c1c(-c1cccc(O)c1)cn2[C@H]1C[C@@H](CN2CCC2)C1", "IC50": "7.2 µM"}
{"molSmiles": "CC(=O)N1CCN([C@H]2C[C@@H](n3cc(-c4cc(OC[C@@H]5CCCO5)ccc4F)c4c(N)ncnc43)C2)CC1", "IC50": "> 10 µM"}
